Where do these numbers come from? They come from ChEMBL document CHEMBL4513216.

ASSAY METHOD TEXT: Toxicity liver stage against HepG2, at 10uM
Type: cell-based
Set-up: test concentration 10 uM, cell line HepG2-A16-CD81EGFP
APPLIED CONDITIONS: human, HepG2-A16-CD81EGFP cells; read-out: INHIBITION
MEASURED PARAMETER: cytotoxicity at 10 µM (%)

- CN(CC1CC1)C(=O)c1cc2c(c(S(N)(=O)=O)c1)CCC2: -51.1
- Cc1ccc(OCCCNC(=O)C2(C)CC(=O)N3C=CC=CC3=N2)cc1 (centres undefined): 0.343
- O=C(NCc1cc2n(n1)CCCNC2)C1(c2ccc(Cl)cc2)CCC1: -9.72
- CC(NC(=O)CCn1c(=O)oc2ccccc21)c1ccccn1 (centres undefined): -3.34
- Cc1nn(CCC#N)c(C)c1CCC(=O)N(C)Cc1ccc(F)cc1F: -1.31
- CCc1ccc(OCC(O)CN2CCC(O)CC2)cc1 (centres undefined): 3.99
- CN(Cc1ccccc1CNC(=O)C1CNC(=O)N1)C1CCCCC1 (centres undefined): 5.09
- CCN(CC)c1nc2ccsc2c(=O)n1CCC(=O)NCc1cccs1: -5.27
- CCN(Cc1noc(C)n1)C(=O)C(c1ccccc1C)N(C)C (centres undefined): 1.89
- Cc1ccc(CN2CCC[C@]3(C(=O)O)CN(CC4CC4)C[C@@H]3C2)s1: -112
- CC(C)N1CC[C@H]2[C@H](C[C@@H](Cn3cncn3)N2c2nccs2)C1: 4.68
- CN(C)CC(=O)N1CCC2(CC1)CN(c1ncccn1)CCO2: -68.7
- CCOc1cc(CN(C)Cc2ccccc2)ccc1OC(F)F: -14.7
- c1csc(CN2CCCn3nnc(COCC4CC4)c3C2)n1: -101
- CCOc1ccc(CN(CC)C(=O)c2ccc(C)[nH]c2=O)cc1OC: -6.83
- O=C(CCc1ccsc1)N1CCC(Cc2ccc(CO)cc2)C1 (centres undefined): 14.7
- CC(C)C(=O)N1CCN(C(=O)c2cscn2)[C@H]2CS(=O)(=O)C[C@H]21: -7.15
- CCSc1cc(C(=O)NCCNC(=O)N(C)C)ccn1: -3.63
- COc1cc2nc(C)n(CC(=O)NCC(C)C)c(=O)c2cc1OC: -4.76

----------
ASSAY METHOD TEXT: Toxicity liver stage against HepG2, at 10uM
Assay type: cell-based
Set-up: test concentration 10 uM, cell line HepG2-A16-CD81EGFP
APPLIED CONDITIONS: human, HepG2-A16-CD81EGFP cells; read-out: INHIBITION
MEASURED PARAMETER: cytotoxicity at 10 µM (%)

- Cc1cc(C(=O)N2CCCC(n3cncn3)C2)no1 (stereo not given): -9.98
- O=C(NCCc1ccccn1)[C@@]12CCO[C@@H]1CCN(C1CCC1)C2: 8.03
- CN(Cc1cccc(-n2cccn2)c1)C(=O)c1ccnc(N)c1: -0.491
- CS(=O)(=O)CCC(=O)N1C[C@H]2CC[C@@H](C1)N(Cc1ccccn1)C2=O: 7.23
- O=C(c1ccc(F)cc1Cl)N1CCC(Nc2cccnn2)CC1: -8.08
- O=C(N[C@@H]1CN(CCc2ccc(F)cc2)C[C@H]1O)c1cscn1: -3.08
- CC(C)CC(=O)NCC1CCC(C(c2ccccn2)N(C)C)CC1 (stereo not given): 12.2
- C1CCC(CNC2CCCN(Cc3noc(C4CC4)n3)C2)CC1 (stereo not given): -4.15
- Cc1nn(C)c(C)c1C1CCCN1C(=O)c1ccc2c(c1)OCCO2 (stereo not given): -10.6
- Cn1cc(CN2CC3(CCN(C(=O)c4cscn4)C3)C2)cn1: -11.9
- CC(C)C(=O)N1CCCN(C(=O)NC2CCc3ccccc3C2)CC1 (stereo not given): -7.33
- CC(C)CNC(=O)c1nc(COc2ccc3c(c2)OCO3)no1: 2.93
- Cc1ccc(C(=O)N(C)Cc2ccc(Br)o2)c(=O)[nH]1: 8.6
- c1ccc(COC[C@H]2CC[C@H]3[C@H](CCN3c3ncccn3)O2)nc1: -78
- CNc1nc(C(=O)N2CCCC(COc3ccc(F)cc3)C2)cs1 (stereo not given): 8.35
